Attribute: Cmax
- Assay summary: Peak plasma level between 0.5 and 1.0 hour in Dawley rats; value ranges from 1021-2551
- Type: ADME, organism-based
- Measurement setup: Sprague-Dawley, rat, read-out: Plasma level
Numeric answer only, unit ng/mL assumed.

Here is how some compounds turned out for Cmax.
>>> numeric_result("C[C@@H]1[C@H](OC(=O)N[C@@H](CSc2ccccc2)[C@H](O)CN2C[C@H]3CCS[C@H]3C[C@H]2C(=O)NC(C)(C)C)CCS1(=O)=O")
1020
>>> numeric_result("CC(C)[C@@H]1[C@H](OC(=O)N[C@@H](CSc2ccccc2)[C@H](O)CN2C[C@H]3CCS[C@H]3C[C@H]2C(=O)NC(C)(C)C)CCS1(=O)=O")
1020

Then this compound:
What value of measured Cmax is listed for `C[C@H]1[C@@H](OC(=O)N[C@@H](CSc2ccccc2)[C@H](O)CN2C[C@H]3CCS[C@H]3C[C@H]2C(=O)NC(C)(C)C)CCS1(=O)=O` ?
1020

====

Attribute: IC95
- Test system: CEM-SS
- Assay summary: Antiviral activity against HIV-1 infected HXB2/CEM-SS cell lines.
- Format: functional
- Measurement setup: Homo sapiens
Numeric answer only, unit nM assumed.

Here is how some compounds turned out for IC95.
>>> numeric_result("CC(C)(C)NC(=O)[C@@H]1C[C@@H]2SCC[C@@H]2CN1C[C@@H](O)[C@H](CSc1ccccc1)NC(=O)O[C@H]1CCS(=O)(=O)C1")
59
>>> numeric_result("C[C@H]1[C@H](OC(=O)N[C@@H](CSc2ccccc2)[C@H](O)CN2C[C@H]3CCS[C@H]3C[C@H]2C(=O)NC(C)(C)C)CCS1(=O)=O")
44

What value of measured IC95 is listed for `CC(C)(C)NC(=O)[C@@H]1C[C@@H]2SCC[C@@H]2CN1C[C@@H](O)[C@H](CSc1ccccc1)NC(=O)O[C@@H]1CCS(=O)(=O)C1` ?
59

What value of measured IC95 is listed for `CC(C)[C@H]1[C@@H](OC(=O)N[C@@H](CSc2ccccc2)[C@H](O)CN2C[C@H]3CCS[C@H]3C[C@H]2C(=O)NC(C)(C)C)CCS1(=O)=O` ?
89

What value of measured IC95 is listed for `C[C@@H]1[C@@H](OC(=O)N[C@@H](CSc2ccccc2)[C@H](O)CN2C[C@H]3CCS[C@H]3C[C@H]2C(=O)NC(C)(C)C)CCS1(=O)=O` ?
45

What value of measured IC95 is listed for `CC(C)[C@@H]1[C@H](OC(=O)N[C@@H](Cc2ccccc2)[C@H](O)CN2C[C@H]3CCS[C@H]3C[C@H]2C(=O)NC(C)(C)C)CCS1(=O)=O` ?
38

====

The following compounds each carry a recorded IC50 for Human immunodeficiency virus type 1 protease (Human immunodeficiency virus 1).
Numeric answer only, unit nM assumed.

>>> numeric_result("CC(C)[C@H]1[C@@H](OC(=O)N[C@@H](Cc2ccccc2)[C@H](O)CN2C[C@H]3CCCC[C@H]3C[C@H]2C(=O)NC(C)(C)C)CCS1(=O)=O")
8.1
>>> numeric_result("C[C@H]1[C@@H](OC(=O)N[C@@H](CSc2ccccc2)[C@H](O)CN2C[C@H]3CCS[C@H]3C[C@H]2C(=O)NC(C)(C)C)CCS1(=O)=O")
0.4
>>> numeric_result("CC(C)(C)NC(=O)[C@@H]1C[C@@H]2SCC[C@@H]2CN1C[C@@H](O)[C@H](CSc1ccccc1)NC(=O)O[C@@H]1CCS(=O)(=O)C1")
2
>>> numeric_result("CC(C)[C@@H]1SCC[C@@H]1OC(=O)N[C@@H](Cc1ccccc1)[C@H](O)CN1C[C@H]2CCS[C@H]2C[C@H]1C(=O)NC(C)(C)C")
2.6

Then this compound:
// lookup IC50 | system=Human immunodeficiency virus type 1 protease (Human immunodeficiency virus 1) | key= `CC(C)[C@H]1[C@@H](OC(=O)N[C@@H](Cc2ccccc2)[C@H](O)CN2C[C@H]3CCS[C@H]3C[C@H]2C(=O)NC(C)(C)C)CCS1(=O)=O`
2.6

Values were extracted from ChEMBL document CHEMBL1128633.
